Provenance of the data: the Immune Epitope Database (IEDB)

- System Under Test: HLA-C*15:02
- Measurement Notes: IEDB peptide-MHC binding, purified MHC/direct/fluorescence; filed as Kd, often an IC50 or EC50 that approximates it; bounds were set here for any values at or beyond the usual limits of such assays
- Measurement Setup: source organism: Human immunodeficiency virus 1
pKd: −log10 of the molar value.

{"Record Sequence": "RMYSPVSIL", "pKd": 6.16}

---

- System Under Test: HLA-A*03:01
- Measurement Notes: IEDB peptide-MHC binding, purified MHC/competitive/radioactivity; filed as Kd, often an IC50 or EC50 that approximates it; bounds were set here for any values at or beyond the usual limits of such assays
- Measurement Setup: source organism: Mammarenavirus whitewaterense

{"Record Sequence": "SLSPNDTTWI", "System Under Test": "HLA-A*03:01", "Kd": "≥ 34.6 µM"}
